Target: MAGE-A11:PCF11 interaction (GST-MAGE-A11 and FAM-PCF11_4) (Homo sapiens, UniProt P43364)
Construct: GST-MAGE-A11 MHD (human MAGE-A11 MHD amino acid 218-429); made in house; host or cells: E. coli BL21(DE3)
Sequence (P43364 218-429): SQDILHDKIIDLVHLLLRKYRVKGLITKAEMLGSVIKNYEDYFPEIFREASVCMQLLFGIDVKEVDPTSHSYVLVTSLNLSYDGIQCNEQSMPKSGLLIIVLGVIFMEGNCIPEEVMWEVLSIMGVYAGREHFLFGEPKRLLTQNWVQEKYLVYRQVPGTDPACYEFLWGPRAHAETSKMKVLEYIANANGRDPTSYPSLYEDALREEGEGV
Assay: TR-FRET primary / single point screen at 15 µM
Assay type: binding
Conditions: single point TR-FRET screening of quinoline compounds against MAGE-A11:PCF11; 15 µM
Lab note: compare percent inhibition (TR-FRET) against 20. Equal or greater, write Criterion met. Smaller, write Criterion not met.

// known answers, use as guide
CCc1ccc(CN(CCCNc2ccnc3cc(Cl)ccc23)Cc2ccccc2)cc1 = Criterion not met
FC(F)(F)Oc1ccc(CN(CCCNc2ccnc3cc(Cl)ccc23)Cc2ccccc2)cc1 = Criterion met
CCCN(CCCNc1ccnc2cc(C(F)(F)F)ccc12)Cc1c(F)cccc1OC = Criterion met
Clc1ccc2c(NCCCN(Cc3ccccc3)Cc3ccsc3)ccnc2c1 = Criterion not met
CCC(C)CN(CCCNc1ccnc2cc(Cl)ccc12)Cc1ccccc1 (stereo not drawn) = Criterion met

# input # bool: percent inhibition (TR-FRET) of CCCN(CCCNc1ccnc2cc(Cl)ccc12)CC1CCCCC1 >= 20
# output Criterion not met

# input # bool: percent inhibition (TR-FRET) of CCC(CC)CNCCCNc1ccnc2cc(C(F)(F)F)ccc12 >= 20
# output Criterion met

# input # bool: percent inhibition (TR-FRET) of CCCN(CCCNc1c2ccc(Cl)cc2nc2ccc(OC)cc12)Cc1cccc([N+](=O)[O-])c1 >= 20
# output Criterion not met

---

biological target: MAGE-A11:PCF11 interaction (GST-MAGE-A11 and FAM-PCF11_4) (Homo sapiens, UniProt P43364); construct: GST-MAGE-A11 MHD (human MAGE-A11 MHD amino acid 218-429); made in house; host or cells: E. coli BL21(DE3); assay: TR-FRET primary / single point screen at 15 µM; assay type: binding; details: single point TR-FRET screening of 797 quinoline compounds against MAGE-A11:PCF11
Lab note: compare percent inhibition (TR-FRET) against -10. Equal or greater, write yes (1). Smaller, write no (0).

# input # bool: percent inhibition (TR-FRET) of COc1ccc2nc3cc(Cl)ccc3c(NCCCNCc3cc(OC(F)(F)F)ccc3OC)c2c1 [SJ000521001] >= -10
# output no (0)

# input # bool: percent inhibition (TR-FRET) of O=S(=O)(c1ccccc1)c1cnc2ccc(Cl)cc2c1N1CCN(c2ccccc2F)CC1 [SJ000315176] >= -10
# output yes (1)

# input # bool: percent inhibition (TR-FRET) of Cc1ccc(C)c(CN2CCC(Nc3ccnc4cc(Cl)ccc34)CC2)c1 [SJ000523106] >= -10
# output yes (1)

# input # bool: percent inhibition (TR-FRET) of CCC(C)CN(CCCCNc1ccnc2cc(Cl)ccc12)Cc1ccccc1 (stereo not drawn) [SJ000361208] >= -10
# output yes (1)

# input # bool: percent inhibition (TR-FRET) of Cc1ccc(S(=O)(=O)c2cnc3ccccc3c2N2CCN(c3ccc(C)cc3C)CC2)cc1 [SJ000117080] >= -10
# output yes (1)
